Experiment: Probe fluorescence ratio response to linolenic acid relative to ADIFAB2
Assay type: binding
Details: response relative to ADIFAB2
Source text: In an alternate preferred embodiment, the protein is rI-FABP that has Ala substituted for Leu at position 72 (rI-FABP-L72A) with the resulting probe named ADIFAB2. […] ADIFAB2 also has an altered spectral response, making it especially useful for measurements of FFAu in blood samples (Apple et al, Clinical Proteomics, (2004) 1:41-44, U.S. patent application Ser. No. 10/670,958). […] The baseline value for this ratio, measured in the absence of analyte, is designated R0. […]
parameter: DR/DR LNA

>>> result("62T, 72A (protein, listed as Rattus norvegicus, PEPTIDE (1)...(131) wild-type rat intestinal fatty acid binding protein) AFDGTWKVDRNENYEKFMEKMGINVVKRKLGAHDNLKLTITQEGNKFTVKESSNFRNIDVVTELGVDFAYSAADGTELTGTWTMEGNKLVGKFKRVDNGKELIAVREISGNELIQTYTYEGVEAKRIFKKE")
0.96
>>> result("18V 31A 73W 72A (protein, listed as Rattus norvegicus, PEPTIDE (1)...(131) wild-type rat intestinal fatty acid binding protein) AFDGTWKVDRNENYEKFVEKMGINVVKRKLAAHDNLKLTITQEGNKFTVKESSNFRNIDVVFELGVDFAYSAWDGTELTGTWTMEGNKLVGKFKRVDNGKELIAVREISGNELIQTYTYEGVEAKRIFKKE")
2.770
>>> result("72T 73Q 74S (protein, listed as Rattus norvegicus, PEPTIDE (1)...(131) wild-type rat intestinal fatty acid binding protein) AFDGTWKVDRNENYEKFMEKMGINVVKRKLGAHDNLKLTITQEGNKFTVKESSNFRNIDVVFELGVDFAYSTQSGTELTGTWTMEGNKLVGKFKRVDNGKELIAVREISGNELIQTYTYEGVEAKRIFKKE")
2.419
